Parameter: %Inh. Scope: all listed entries.
Tested on: ACVR2A
Conditions: concentration: 1 μM, replicates: in singlicate; n = 1;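 also: KINOMEscan kinase panel screen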
Express it in %; write the number only.

A selection of reference data follows.
smiles_string=c1ccc(-c2n[nH]cc2Nc2ccnc3ccccc23)nc1 readout_unit=% quantitative_result=0
smiles_string=Nc1ncc(-c2ccc3nccc(-c4ccncc4)c3c2)cc1S(=O)(=O)N1CCOCC1 readout_unit=% quantitative_result=0

The molecule Cl.c1ccc(-c2ccc3c(Nc4ccc5[nH]ncc5c4)ccnc3c2)nc1 on ACVR2A: %Inh was 57

###

System: CDK5
Conditions: concentration: 1 μM, replicates: in singlicate; n = 1
OBSERVABLE: %Inh (%)
Express it in %; write the number only.

smiles_string=Cn1cc(-c2ccc3c(c2)CCN3C(=O)Cc2cccc(Cl)c2)c2c(N)ncnc21 readout_unit=% quantitative_result=0

The recorded %Inh for COc1ccc(-c2coc3ccc(-c4nnc(SCc5ccc(OC)c(C(F)(F)F)c5)o4)cc23)cc1 is 14

Entry Cl.c1ccc(-c2ccc3c(Nc4ccc5[nH]ccc5c4)ccnc3c2)nc1 , %Inh reported as 0

# compound Cc1ccc(C(=O)N2CC[C@@H](O)C2)cc1-n1c(C)cc(OCc2ccc(F)cc2F)c(Br)c1=O ; its %Inh = 0

Noted for O=C(Nc1n[nH]c2nc(-c3ccc(O)cc3)ccc12)C1CC1 : its %Inh reads 0

Measured %Inh of Cc1cccc(Nc2nc(N[C@H]3CCNC3)ncc2C(N)=O)c1.Cl : 0
